# Tested on: E. coli 851E
# protocol: Minimum Inhibitory Concentration (MIC), agar dilution
# Assay type: cell-based
# conditionNotes: 18 hours at 37°C
reportedEndpoint: MIC (agar dilution) of compound (µg/mL)
Lab book: enter the figure in µg/mL, no units written.

Determine its reported MIC (agar dilution) of compound: CC(=O)c1cn(C/C=C2\O[C@@H]3CC(=O)N3[C@H]2C(=O)O)nn1
4

Kindly indicate its recorded MIC (agar dilution) of compound. Item: COC(=O)c1cn(C/C=C2\O[C@@H]3CC(=O)N3[C@H]2C(=O)O)nn1
4

Give recorded MIC (agar dilution) of compound. CNC(=O)c1cn(C/C=C2\O[C@@H]3CC(=O)N3[C@H]2C(=O)O)nn1
8

---

# Test system: E. coli 851E
# protocol: Minimum Inhibitory Concentration (MIC), agar dilution
# Format: cell-based
# conditionNotes: 18 hours at 37°C
reportedEndpoint: MIC (agar dilution) of compound (µg/mL)
Write it as a number; the unit µg/mL goes unstated.

Find MIC (agar dilution) of compound for NC(=O)c1cn(C/C=C2\O[C@@H]3CC(=O)N3[C@H]2C(=O)O)nn1 [Example 12] on E. coli 851E and write it down.
4

Provide E. coli 851E MIC (agar dilution) of compound reading for N#Cc1cn(C/C=C2\O[C@@H]3CC(=O)N3[C@H]2C(=O)O)nn1 [Example 17] .
2

Lab note: E. coli 851E assay, enter MIC (agar dilution) of compound for CCOC(=O)c1cn(C/C=C2\O[C@@H]3CC(=O)N3[C@H]2C(=O)O)nn1 [Example 4] here
4

// output MIC (agar dilution) of compound; input O=C(O)c1cn(C/C=C2\O[C@@H]3CC(=O)N3[C@H]2C(=O)O)nn1 [Example 8] ; system E. coli 851E
8

Please tell me the measured MIC (agar dilution) of compound for O=C(O)[C@H]1/C(=C/Cn2ccnn2)O[C@@H]2CC(=O)N21 [Example 22] ; system: E. coli 851E.
4

---

# Tested on: E. cloacae 1051E
# protocol: Minimum Inhibitory Concentration (MIC), agar dilution
# Assay type: cell-based
# conditionNotes: 18 hours at 37°C
reportedEndpoint: MIC (agar dilution) of compound (µg/mL)
Give the value, in units of µg/mL, as a plain number.

Read the entry O=C(O)c1cn(C/C=C2\O[C@@H]3CC(=O)N3[C@H]2C(=O)O)nn1 [Example 8] and write its reported MIC (agar dilution) of compound.
16

For CCOC(=O)c1cn(C/C=C2\O[C@@H]3CC(=O)N3[C@H]2C(=O)O)nn1 [Example 4] , write its MIC (agar dilution) of compound.
16

Supply reported MIC (agar dilution) of compound belonging to this molecule: COC(=O)c1cn(C/C=C2\O[C@@H]3CC(=O)N3[C@H]2C(=O)O)nn1 [Example 19]
16

Give MIC (agar dilution) of compound for NC(=O)c1cn(C/C=C2\O[C@@H]3CC(=O)N3[C@H]2C(=O)O)nn1 [Example 12]
4

---

So I've got a bunch of compounds here, and I need their μg/ml of compound giving 50% inhibition of hydrolysis of ampicillin values.
# testSystem: partially purified β-lactamase K1
# protocol: β-Lactamase inhibition (hydrolysis of ampicillin)
# Type: biochemical
# conditionNotes: β-lactamase KI; ampicillin sodium 500 µg/ml, 37°C, pH7
# output: bare number, implied unit µg/mL

Recall the reported μg/ml of compound giving 50% inhibition of hydrolysis of ampicillin of CC(=O)c1cnnn1C/C=C1\O[C@@H]2CC(=O)N2[C@H]1C(=O)O when tested on partially purified β-lactamase K1.
0.62

Please report the measured μg/ml of compound giving 50% inhibition of hydrolysis of ampicillin for O=C(O)c1cn(C/C=C2\O[C@@H]3CC(=O)N3[C@H]2C(=O)O)nn1 tested on partially purified β-lactamase K1.
0.22

Quote μg/ml of compound giving 50% inhibition of hydrolysis of ampicillin with test system partially purified β-lactamase K1 for CCOC(=O)c1nnn(C/C=C2\O[C@@H]3CC(=O)N3[C@H]2C(=O)O)c1C(=O)OCC
0.8

Tell me its μg/ml of compound giving 50% inhibition of hydrolysis of ampicillin on partially purified β-lactamase K1: CNC(=O)c1cn(C/C=C2\O[C@@H]3CC(=O)N3[C@H]2C(=O)O)nn1
0.7

# assay system partially purified β-lactamase K1: give μg/ml of compound giving 50% inhibition of hydrolysis of ampicillin of CC(=O)c1cn(C/C=C2\O[C@@H]3CC(=O)N3[C@H]2C(=O)O)nn1
0.155

For partially purified β-lactamase K1, give the measured μg/ml of compound giving 50% inhibition of hydrolysis of ampicillin of the entry NC(=O)c1cn(C/C=C2\O[C@@H]3CC(=O)N3[C@H]2C(=O)O)nn1
0.34

Please indicate recorded μg/ml of compound giving 50% inhibition of hydrolysis of ampicillin of N#Cc1cn(C/C=C2\O[C@@H]3CC(=O)N3[C@H]2C(=O)O)nn1 measured with partially purified β-lactamase K1.
0.39

Return reported μg/ml of compound giving 50% inhibition of hydrolysis of ampicillin for target or system partially purified β-lactamase K1, item CCOC(=O)c1cn(C/C=C2\O[C@@H]3CC(=O)N3[C@H]2C(=O)O)nn1 .
0.35

Data provenance: patent EP0001516A1
